target: Human PI3K beta (Homo sapiens, UniProt P42338)
Sequence (P42338 whole entry): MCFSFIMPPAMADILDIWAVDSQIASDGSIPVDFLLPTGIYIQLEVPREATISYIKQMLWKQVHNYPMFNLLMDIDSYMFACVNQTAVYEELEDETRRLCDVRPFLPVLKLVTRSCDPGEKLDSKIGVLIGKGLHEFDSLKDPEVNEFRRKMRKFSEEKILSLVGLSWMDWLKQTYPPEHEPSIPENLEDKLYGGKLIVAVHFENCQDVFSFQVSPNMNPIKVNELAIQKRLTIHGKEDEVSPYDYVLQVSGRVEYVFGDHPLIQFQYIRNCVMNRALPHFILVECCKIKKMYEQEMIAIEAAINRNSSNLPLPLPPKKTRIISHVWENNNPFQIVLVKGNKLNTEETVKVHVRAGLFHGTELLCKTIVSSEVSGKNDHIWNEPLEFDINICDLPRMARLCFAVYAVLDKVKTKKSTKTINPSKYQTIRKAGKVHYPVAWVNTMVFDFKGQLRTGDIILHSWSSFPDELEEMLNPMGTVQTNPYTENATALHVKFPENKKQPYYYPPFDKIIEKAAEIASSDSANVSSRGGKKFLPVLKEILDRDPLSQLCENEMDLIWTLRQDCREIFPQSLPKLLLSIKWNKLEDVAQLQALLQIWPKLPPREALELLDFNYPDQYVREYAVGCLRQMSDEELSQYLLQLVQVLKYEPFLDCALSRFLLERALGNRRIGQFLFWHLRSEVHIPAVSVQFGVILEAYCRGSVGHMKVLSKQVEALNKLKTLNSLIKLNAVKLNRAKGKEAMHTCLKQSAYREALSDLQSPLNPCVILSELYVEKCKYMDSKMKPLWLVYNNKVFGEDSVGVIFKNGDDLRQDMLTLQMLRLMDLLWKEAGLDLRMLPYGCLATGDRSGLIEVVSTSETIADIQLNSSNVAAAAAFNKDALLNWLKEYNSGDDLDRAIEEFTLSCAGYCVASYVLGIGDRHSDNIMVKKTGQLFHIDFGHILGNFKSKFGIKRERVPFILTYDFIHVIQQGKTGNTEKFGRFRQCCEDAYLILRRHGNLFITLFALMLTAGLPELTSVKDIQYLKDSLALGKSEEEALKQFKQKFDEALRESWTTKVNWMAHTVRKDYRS
Sequence (P27986 whole entry partner): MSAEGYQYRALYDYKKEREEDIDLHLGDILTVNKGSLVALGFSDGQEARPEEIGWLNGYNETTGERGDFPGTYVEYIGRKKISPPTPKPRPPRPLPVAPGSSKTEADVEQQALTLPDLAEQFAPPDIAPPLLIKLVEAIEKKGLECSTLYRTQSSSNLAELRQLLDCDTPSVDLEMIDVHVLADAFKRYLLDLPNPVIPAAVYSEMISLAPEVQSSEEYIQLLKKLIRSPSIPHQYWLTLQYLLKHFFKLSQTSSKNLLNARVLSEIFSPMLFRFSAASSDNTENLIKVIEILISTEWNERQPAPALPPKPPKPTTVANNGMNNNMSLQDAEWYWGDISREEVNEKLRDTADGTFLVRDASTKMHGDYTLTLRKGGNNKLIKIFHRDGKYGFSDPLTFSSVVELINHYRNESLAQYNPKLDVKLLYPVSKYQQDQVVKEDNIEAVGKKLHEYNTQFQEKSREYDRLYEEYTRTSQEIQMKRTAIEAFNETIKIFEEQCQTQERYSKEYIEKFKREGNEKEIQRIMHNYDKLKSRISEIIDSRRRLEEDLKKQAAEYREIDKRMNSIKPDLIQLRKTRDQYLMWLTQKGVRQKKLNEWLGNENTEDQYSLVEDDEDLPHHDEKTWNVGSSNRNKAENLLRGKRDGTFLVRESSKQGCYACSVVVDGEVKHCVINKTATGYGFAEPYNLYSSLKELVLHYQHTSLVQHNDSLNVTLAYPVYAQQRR
IC50 reference

Below, 3 molecules whose answers are already recorded.
molecule: OCc1cc(-c2cc(C(O)c3ccc(Cl)cc3)c(-c3nnc[nH]3)s2)ccn1 (stereo not drawn)
IC50: 100 to 1000 nM
//
molecule: CC(=O)Nc1cc(-c2nc(NC(=O)c3ccccc3)c(-c3ncc[nH]3)s2)ccn1
IC50: > 1000 nM
//
molecule: O[C@H](c1ccc(Cl)cc1)c1cc(-c2ccncc2)sc1-c1nnc[nH]1
IC50: < 100 nM

Input `Cc1nn2ccc(CNCCN)cc2c1-c1nc(Cc2ccc(Cl)cc2)c(-c2nnc[nH]2)s1` . Output IC50: 100 to 1000 nM

Input `O=C(O)c1sc(-c2ccncc2)nc1Cc1ccc(Cl)cc1` . Output IC50: < 100 nM

Input `Cc1nn2ccc(CNC(=O)c3cnccn3)cc2c1-c1nc(Cc2ccc(Cl)cc2)c(-c2nnc[nH]2)s1` . Output IC50: < 100 nM

Input `Cc1nn2ccccc2c1-c1nc(Cc2ccc(Cl)cc2)c(-c2nnc[nH]2)s1` . Output IC50: 100 to 1000 nM

Input OC(c1ccc(Cl)cc1)c1cc(-c2ccnc(Cl)c2)sc1-c1nnc[nH]1 (stereo not drawn) . Output IC50: < 100 nM

Input `CC(=O)Nc1cc(-c2nc(Cc3ccccc3)c(-c3ncc[nH]3)s2)ccn1` . Output IC50: > 1000 nM

---

target: Human PI3K alpha (Homo sapiens); construct: His (N); host or cells: SF9 insect cells (baculovirus); assay: Human PI3K alpha enzyme assay (HTRF); format: biochemical; conditions: concentration not given; b1387 states 1.1 μM for PI3K α and β; read-out: p110 alpha Percent Inhibition
Sequence (P42336 whole entry): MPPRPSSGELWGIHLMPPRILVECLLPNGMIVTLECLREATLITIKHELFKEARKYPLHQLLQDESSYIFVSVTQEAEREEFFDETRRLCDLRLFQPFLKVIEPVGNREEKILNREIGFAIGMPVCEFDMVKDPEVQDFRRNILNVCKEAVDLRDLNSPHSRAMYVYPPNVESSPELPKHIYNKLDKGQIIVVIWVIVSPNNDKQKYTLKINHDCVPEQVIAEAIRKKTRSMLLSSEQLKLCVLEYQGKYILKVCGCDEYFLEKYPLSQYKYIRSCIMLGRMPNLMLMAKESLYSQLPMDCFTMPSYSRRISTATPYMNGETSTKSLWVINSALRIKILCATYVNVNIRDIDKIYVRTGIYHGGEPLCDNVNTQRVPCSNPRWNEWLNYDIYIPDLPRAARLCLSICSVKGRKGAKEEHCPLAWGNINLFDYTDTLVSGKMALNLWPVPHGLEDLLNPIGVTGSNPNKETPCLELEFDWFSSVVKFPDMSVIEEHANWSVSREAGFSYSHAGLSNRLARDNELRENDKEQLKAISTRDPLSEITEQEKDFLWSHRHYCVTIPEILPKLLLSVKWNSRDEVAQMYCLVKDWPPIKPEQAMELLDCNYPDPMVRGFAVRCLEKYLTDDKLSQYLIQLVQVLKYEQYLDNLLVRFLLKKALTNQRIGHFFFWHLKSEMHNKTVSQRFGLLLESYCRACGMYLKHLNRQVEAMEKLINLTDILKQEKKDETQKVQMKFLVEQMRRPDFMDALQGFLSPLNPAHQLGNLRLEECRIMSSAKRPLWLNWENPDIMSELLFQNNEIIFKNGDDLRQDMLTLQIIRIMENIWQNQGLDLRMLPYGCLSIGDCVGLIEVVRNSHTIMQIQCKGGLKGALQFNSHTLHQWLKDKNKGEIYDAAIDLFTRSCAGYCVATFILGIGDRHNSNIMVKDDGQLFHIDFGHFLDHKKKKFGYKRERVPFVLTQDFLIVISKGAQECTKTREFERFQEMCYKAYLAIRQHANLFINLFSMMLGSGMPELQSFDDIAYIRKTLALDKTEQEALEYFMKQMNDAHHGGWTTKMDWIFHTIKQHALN
Sequence (P27986 whole entry partner): as the sequence (P27986 whole entry partner) above
inhibition at 1.1 µM reference
Kindly answer with a numeric value in %, unit omitted.

Below, 2 molecules whose answers are already recorded.
molecule: N#Cc1c(N2CCOCC2)sc(C(=O)O)c1Cc1ccc2ccncc2c1
inhibition at 1.1 µM, %: 56

molecule: CC(c1ccc(Cl)c(Cl)c1)c1nc(N2CCOCC2)sc1C(=O)O (centres unmarked)
inhibition at 1.1 µM, %: 11

Input `N#Cc1c(N2CCOCC2)sc(-c2nnn[nH]2)c1Cc1ccc2ccccc2c1` . Output inhibition at 1.1 µM: 78

Input N#Cc1c(-c2ccnnc2)sc(-c2nnc[nH]2)c1C(c1ccc2ccccc2c1)N1CCNCC1 (centres unmarked) . Output inhibition at 1.1 µM: 28

Input `N#Cc1c(-c2ccncc2)sc(-c2nnc[nH]2)c1Cc1ccc2ccccc2c1` . Output inhibition at 1.1 µM: 41

Input `O=C(O)c1sc(N2CCOCC2)nc1Cc1cc2ccccc2cc1F` . Output inhibition at 1.1 µM: 42

Input OC(c1cc(-c2ccncc2)sc1-c1nnc[nH]1)c1cccc2nccnc12 (centres unmarked) . Output inhibition at 1.1 µM: 65

Input OC(c1cnc2ccccc2n1)c1cc(-c2ccncc2)sc1-c1nnc[nH]1 (centres unmarked) . Output inhibition at 1.1 µM: 48

---

inhibition at 1.1 µM reference
target: Human PI3K alpha (Homo sapiens); construct: His (N); host or cells: SF9 insect cells (baculovirus); test: Human PI3K alpha enzyme assay (HTRF); format: biochemical; details: at a 1.1 μM concentration; read-out: PI3Kα Percent Inhibition
Note to self: number, then unit, no commentary.

compound: O=C(O)c1sc(N2CCOCC2)nc1Cc1ccc(OC(F)(F)F)cc1 [Compound 109]
inhibition at 1.1 µM: 6%

compound: N#Cc1c(N2CCOCC2)sc(C(=O)O)c1Cc1ccc(Cl)cc1 [Compound 116]
inhibition at 1.1 µM: 46%

compound: N#Cc1c(N2CCOCC2)sc(C(=O)O)c1Cc1ccc(Br)cc1 [Compound 106]
inhibition at 1.1 µM: 58%

Input COc1cc(Cc2c(C(=O)O)sc(N3CCOCC3)c2C#N)ccc1Cl [Compound 122] . Output inhibition at 1.1 µM: 49%

Input N#Cc1c(N2CCOCC2)sc(C(=O)O)c1Cc1ccc(Cl)c(F)c1 [Compound 94] . Output inhibition at 1.1 µM: 58%

Input COc1ccc(Cc2c(C(=O)O)sc(N3CCOCC3)c2C#N)cc1 [Compound 105] . Output inhibition at 1.1 µM: 21%

Input COc1ccc(Cc2c(C(=O)O)sc(N3CCOCC3)c2C#N)c(Cl)c1 [Compound 117] . Output inhibition at 1.1 µM: 48%

Input N#Cc1c(N2CCOCC2)sc(C(=O)O)c1Cc1ccc(Cl)cc1Cl [Compound 96] . Output inhibition at 1.1 µM: 58%

Input COc1cc(Cc2c(C(=O)O)sc(N3CCOCC3)c2C#N)c(F)cc1Cl [Compound 127] . Output inhibition at 1.1 µM: 40%

Input N#Cc1ccc(Cc2c(C(=O)O)sc(N3CCOCC3)c2C#N)cc1 [Compound 115] . Output inhibition at 1.1 µM: 45%

---

molecular target: Human PI3K delta (Homo sapiens, UniProt O00329); construct: His (N); host or cells: SF9 insect cells (baculovirus); assay: Human PI3K delta enzyme assay (HTRF); format: biochemical; details: concentration not given; b1389 states 1.0 μM for PI3K δ and γ
Sequence (O00329 whole entry): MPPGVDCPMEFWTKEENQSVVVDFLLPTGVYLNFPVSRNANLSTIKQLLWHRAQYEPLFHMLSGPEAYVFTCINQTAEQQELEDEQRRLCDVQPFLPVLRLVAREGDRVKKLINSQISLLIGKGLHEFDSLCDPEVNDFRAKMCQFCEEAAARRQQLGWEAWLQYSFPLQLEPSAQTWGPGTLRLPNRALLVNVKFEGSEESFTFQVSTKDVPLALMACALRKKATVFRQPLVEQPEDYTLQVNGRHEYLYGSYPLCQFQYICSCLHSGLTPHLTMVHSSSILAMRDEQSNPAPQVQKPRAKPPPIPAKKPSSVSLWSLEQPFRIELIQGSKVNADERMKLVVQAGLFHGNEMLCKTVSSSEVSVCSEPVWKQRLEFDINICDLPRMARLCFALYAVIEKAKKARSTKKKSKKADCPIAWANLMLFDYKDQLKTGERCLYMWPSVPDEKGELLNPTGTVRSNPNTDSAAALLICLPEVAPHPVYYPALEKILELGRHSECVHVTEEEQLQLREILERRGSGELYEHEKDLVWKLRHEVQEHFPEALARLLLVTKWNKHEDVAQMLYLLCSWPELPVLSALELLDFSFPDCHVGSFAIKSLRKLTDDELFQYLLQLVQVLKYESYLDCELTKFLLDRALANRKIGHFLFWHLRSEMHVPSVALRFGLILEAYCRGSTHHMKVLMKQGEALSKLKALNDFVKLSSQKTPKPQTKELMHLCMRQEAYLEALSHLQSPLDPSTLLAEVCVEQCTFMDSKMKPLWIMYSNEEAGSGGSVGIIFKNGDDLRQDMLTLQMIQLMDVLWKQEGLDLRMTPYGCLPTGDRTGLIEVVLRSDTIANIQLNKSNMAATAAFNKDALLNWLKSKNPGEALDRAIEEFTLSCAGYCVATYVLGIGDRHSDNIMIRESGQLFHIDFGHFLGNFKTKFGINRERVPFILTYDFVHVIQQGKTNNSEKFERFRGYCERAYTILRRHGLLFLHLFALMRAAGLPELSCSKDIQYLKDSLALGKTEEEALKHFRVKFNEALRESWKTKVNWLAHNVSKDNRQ
Sequence (P27986 whole entry partner): as the sequence (P27986 whole entry partner) above
property-measured: p110 delta Percent Inhibition (%)
Kindly answer with a numeric value in %, unit omitted.

The value of p110 delta Percent Inhibition recorded for CC(c1ccc2cc(F)ccc2c1)c1c(C(=O)O)sc(N2CCOCC2)c1C#N (centres unmarked) when tested on Human PI3K delta (Homo sapiens, UniProt O00329) reads 109

The value of p110 delta Percent Inhibition recorded for COc1cc(C(O)c2cc(-c3ccnnc3)sc2-c2nnc[nH]2)c(F)cc1Cl (centres unmarked) [Compound 168] when tested on Human PI3K delta (Homo sapiens, UniProt O00329) reads 110

The value of p110 delta Percent Inhibition recorded for `c1ccc2cc(Cc3nc(N4CCOCC4)sc3-c3nnn[nH]3)ccc2c1` when tested on Human PI3K delta (Homo sapiens, UniProt O00329) reads 110

The value of p110 delta Percent Inhibition recorded for COc1cc(C(O)c2cc(-c3ccnc(Cl)c3)sc2-c2nnc[nH]2)c(F)cc1Cl (centres unmarked) [Compound 149] when tested on Human PI3K delta (Homo sapiens, UniProt O00329) reads 117

The value of p110 delta Percent Inhibition recorded for COc1cc(C(O)c2cc(-c3ccnc(C)c3)sc2-c2nnc[nH]2)c(F)cc1Cl (centres unmarked) [Compound 265] when tested on Human PI3K delta (Homo sapiens, UniProt O00329) reads 111

---

inhibition at 1 µM reference
biological target: Human VPS34 (Homo sapiens, UniProt Q8NEB9); construct: GST (with thrombin site, pDEST20-Thrombin) (N); host or cells: SF9 insect cells (baculovirus); test: Human VPS34 enzyme assay (Adapta Universal Kinase Assay); format: biochemical; details: at a 1.0 μM concentration; read-out: VPS34 Percent Inhibition
Sequence (Q8NEB9 whole entry): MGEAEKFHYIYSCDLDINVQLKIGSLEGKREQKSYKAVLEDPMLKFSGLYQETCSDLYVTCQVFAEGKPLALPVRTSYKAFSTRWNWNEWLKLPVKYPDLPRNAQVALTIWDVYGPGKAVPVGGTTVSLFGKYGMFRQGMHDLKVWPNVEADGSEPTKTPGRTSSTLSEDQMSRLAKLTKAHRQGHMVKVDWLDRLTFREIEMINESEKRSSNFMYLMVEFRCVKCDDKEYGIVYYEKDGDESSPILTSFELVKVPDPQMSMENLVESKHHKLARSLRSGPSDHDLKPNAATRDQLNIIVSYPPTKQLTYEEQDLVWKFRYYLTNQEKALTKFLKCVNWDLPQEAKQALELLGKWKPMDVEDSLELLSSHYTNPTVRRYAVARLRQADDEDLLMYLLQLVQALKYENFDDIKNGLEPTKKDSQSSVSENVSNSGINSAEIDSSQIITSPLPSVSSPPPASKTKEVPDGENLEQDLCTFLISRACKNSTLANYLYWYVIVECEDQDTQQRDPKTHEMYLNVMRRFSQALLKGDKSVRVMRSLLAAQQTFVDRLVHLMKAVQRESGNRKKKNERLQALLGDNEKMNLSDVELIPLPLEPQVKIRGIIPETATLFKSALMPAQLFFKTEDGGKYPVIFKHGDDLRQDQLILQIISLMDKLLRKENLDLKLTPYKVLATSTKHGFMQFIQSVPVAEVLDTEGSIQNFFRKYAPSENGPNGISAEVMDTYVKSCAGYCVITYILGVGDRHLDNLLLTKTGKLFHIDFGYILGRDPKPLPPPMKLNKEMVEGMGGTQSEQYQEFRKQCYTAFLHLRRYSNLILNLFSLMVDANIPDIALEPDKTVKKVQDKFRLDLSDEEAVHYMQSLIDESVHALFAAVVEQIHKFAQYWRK
Note to self: number, then unit, no commentary.

substance-smiles: N#Cc1c(N2CCOCC2)sc(C(=O)O)c1Cc1ccc(Cl)cc1Cl
endpoint-value: 47.8%
--
substance-smiles: N#Cc1c(N2CCOCC2)sc(C(=O)O)c1Cc1ccc(Cl)c(Cl)c1
endpoint-value: 78.8%

The value of inhibition at 1 µM recorded for `O=C(O)c1sc(N2CCOCC2)nc1Cc1ccc2cc(F)ccc2c1` when tested on Human VPS34 (Homo sapiens, UniProt Q8NEB9) reads 88.1%

---

target: Human VPS34 (Homo sapiens, UniProt Q8NEB9); construct: GST (with thrombin site, pDEST20-Thrombin) (N); host or cells: SF9 insect cells (baculovirus); assay: Human VPS34 enzyme assay (Adapta Universal Kinase Assay); type: biochemical; details: at a 1.0 μM concentration; read-out: VPS34 Percent Inhibition
Counter-ions that a name gives are not always drawn.
property-measured: inhibition at 1 µM (%)
Kindly answer with a numeric value in %, unit omitted.

Below, 2 compounds whose answers are already recorded.
compound: N#Cc1c(N2CCOCC2)sc(C(=O)O)c1C(N)c1ccc(Cl)cc1 (stereo not drawn) [Compound 113, hydrochloride]
system: Human VPS34 (Homo sapiens, UniProt Q8NEB9)
units-label: %
inhibition at 1 µM: 18.1

compound: N#Cc1c(N2CCOCC2)sc(C(=O)O)c1Cc1ccc(Br)cc1 [Compound 106]
system: Human VPS34 (Homo sapiens, UniProt Q8NEB9)
units-label: %
inhibition at 1 µM: 34.4

Now let's try a different one.
Input O=C(O)c1sc(N2CCOCC2)nc1Cc1ccc(Cl)c(F)c1 [Compound 118] . Output inhibition at 1 µM: 68.2

---

target: Human PI3K delta (Homo sapiens, UniProt O00329); construct: His (N); host or cells: SF9 insect cells (baculovirus); assay: Human PI3K delta enzyme assay (HTRF); type: biochemical; settings: concentration not given; b1389 states 1.0 μM for PI3K δ and γ; read-out: p110 delta Percent Inhibition
Kind request: treat 80% as inclusive, so inhibition at 1 µM at 80% or higher is True, anything lower is False.

These solved cases illustrate the format of a correct answer.
compound: O=C(O)c1sc(N2CCOCC2)nc1Cc1ccc2cc[nH]c2c1 [Compound 328]
class: True

compound: CC(=O)Nc1cc(-c2sc(-c3nnc[nH]3)c(S(=O)(=O)c3ccc(Cl)cc3)c2C#N)ccn1 [Compound 140]
class: False

Moving on to another compound below.
Task: Check if inhibition at 1 µM >= 80% (inclusive). Item: CN(C)C(c1ccc(Cl)cc1)c1cc(-c2ccnc(N)c2)sc1-c1nnc[nH]1 (centres unmarked) [Compound 185]
Output: False

Origin of values: patent US8796268B2
